Record form. Attribute: Ki. Fill in for each entry.
molecular target: D(1A) dopamine receptor (Homo sapiens, UniProt P21728); assay: Displacement of [3H]SCH23390 from human dopamine D1 receptor
Sequence (P21728 whole entry): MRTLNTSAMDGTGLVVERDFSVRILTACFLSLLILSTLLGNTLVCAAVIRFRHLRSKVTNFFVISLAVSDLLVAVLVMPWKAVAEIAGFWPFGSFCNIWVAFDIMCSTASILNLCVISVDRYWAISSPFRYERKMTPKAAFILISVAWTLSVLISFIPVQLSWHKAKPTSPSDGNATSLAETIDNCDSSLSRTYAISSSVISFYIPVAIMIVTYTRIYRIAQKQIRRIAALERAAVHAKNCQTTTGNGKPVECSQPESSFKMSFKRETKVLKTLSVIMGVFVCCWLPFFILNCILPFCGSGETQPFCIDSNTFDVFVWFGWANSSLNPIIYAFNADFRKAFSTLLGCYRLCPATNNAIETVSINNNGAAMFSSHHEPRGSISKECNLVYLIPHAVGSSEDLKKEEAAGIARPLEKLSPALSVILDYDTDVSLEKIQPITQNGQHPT
Numbers only, in µM.

Ask: // query Ki value for entry "O=C1c2ccccc2CCCN1CCCCN1CCN(c2cccc(Cl)c2Cl)CC1"
Result: 1.74

Ask: // Ki lookup, key: "O=C1c2ccccc2CCN1CCCCN1CCN(c2ccccc2Cl)CC1"
Result: 0.347

Ask: Quick one: Ki for "O=C1c2ccccc2CCN1CCCN1CCN(c2cccc(C(F)(F)F)c2)CC1" ?
Result: 1.74

Ask: GET /values?readout=Ki&item= "O=C1c2ccccc2CCCN1CCCCN1CCN(c2ncccn2)CC1"
Result: 8.71

Ask: Requested read-out: Ki. Entry: "COc1ccccc1N1CCN(CCCCN2CCCc3ccccc3C2=O)CC1"
Result: 2.69

Ask: Would you mind telling me what Ki value was observed for "O=C1c2ccccc2CCCN1CCCN1CCN(c2cccc(C(F)(F)F)c2)CC1" ?
Result: 4.9

Ask: Given the entry "O=C1c2ccccc2CCN1CCCN1CCN(c2cccc(Cl)c2Cl)CC1" , report its measured Ki.
Result: 1.45

Ask: Entry "COc1ccccc1N1CCN(CCCCCN2CCc3ccccc3C2=O)CC1" : reported Ki = ?
Result: 0.977

For the 3 molecules below, give their Ki values.
1. O=C1c2ccccc2CCN1CCCCN1CCN(c2cccc(Cl)c2Cl)CC1
2. COc1ccccc1N1CCN(CCCN2CCCc3ccccc3C2=O)CC1
3. O=C1c2ccccc2CCN1CCCN1CCN(c2ccccn2)CC1

Result:
1. 1.78
2. 2.51
3. 1.7
